pIC50: −log10 of the molar value.
# pIC50 against TYRO3 (Homo sapiens), merged from multiple literature sources

Consider the worked cases shown below.
[
  {
    "compound": "COC[C@H](C)Nc1ncc2c(C3CC3)ncc([C@H]3CC[C@H](O)CC3)c2n1",
    "pIC50": "≥ 7.00"
  },
  {
    "compound": "C[C@@H](CC(F)(F)F)Nc1ncc2c(-c3cnn(C(C)(C)C(=O)C4COC4)c3)cc([C@H]3CC[C@](C)(O)CC3)n2n1",
    "pIC50": "≥ 7.00"
  },
  {
    "compound": "COC[C@H](C)Nc1ncc2c(OC3CCOCC3)ncc([C@@H]3CCCN(C)C3)c2n1",
    "pIC50": "5.00 to 6.00"
  },
  {
    "compound": "COc1cc2nccc(Oc3ccc(NC(=O)c4cn(CC5CCSCC5)cc(-c5ccc(C)cc5)c4=O)nc3)c2cc1OC",
    "pIC50": 7.55
  },
  {
    "compound": "Cc1cc(-c2ccc(NC(=O)c3cccn(-c4ccccc4)c3=O)cc2F)c2c(N)ncnn12",
    "pIC50": "< 7.00"
  }
]

GET /values?readout=pIC50&system=TYRO3 (Homo sapiens)&item= O=C(O)c1ccc(Nc2ncc3c(OC4CCNCC4)ncc([C@H]4CC[C@H](O)CC4)c3n2)cc1 ≥ 7.00

Any idea what pIC50 came out for COC[C@H](C)Nc1ncc2c(-c3cnn([C@@H]4CCC(C(=O)OC(C)(C)C)C4)c3)cc([C@H]3CC[C@H](O)CC3)n2n1 (some centres unmarked) on TYRO3 (Homo sapiens)? ≥ 7.00

Given the entry C[C@@H]1CCCN1C1CCc2ccc(-c3cnc4[nH]nc(-c5ccc(C(C)(C)O)c(C(F)(F)F)c5)c4c3)cc2CC1 (some centres unmarked) , what pIC50 was observed with TYRO3 (Homo sapiens)? > 7.00

GET /values?readout=pIC50&system=TYRO3 (Homo sapiens)&item= CNc1c(N[C@H]2CC[C@H](c3cc(-c4ccc(CN5CCOCC5)cc4)c4cnc(N[C@@H](C)COC)nn43)CC2)c(=O)c1=O ≥ 7.00

Test system TYRO3 (Homo sapiens); read-out pIC50; what value for COC[C@H](C)Nc1ncc2c(O[C@H]3C[C@H](C(=O)N4CCN(C)CC4)C3)ncc([C@H]3CC[C@H](O)CC3)c2n1 ? ≥ 7.00

// map COC[C@H](C)Nc1ncc2c(-c3ccnc(NC4CCOC4)c3)cc([C@H]3CC[C@H](O)CC3)n2n1 (some centres unmarked) to recorded pIC50 (system: TYRO3 (Homo sapiens)) ≥ 7.00

Give recorded pIC50 with TYRO3 (Homo sapiens) for the following compound: COC[C@H](C)Nc1ncc2c(-c3ccnc(N4CCC(C)(O)CC4)c3)cc([C@H]3CC[C@H](O)CC3)n2n1 ≥ 7.00

Checklist item: pIC50 tested on TYRO3 (Homo sapiens), entry COC[C@H](C)Nc1ncc2c(-c3cc(C)ccn3)cc([C@H]3CC[C@H](O)CC3)n2n1 , value? 6.00 to 7.00

# value lookup — system TYRO3 (Homo sapiens), readout pIC50, item CC[C@H](C)Nc1ncc2c(OCC(F)(F)F)ncc([C@H]3CC[C@H](O)CC3)c2n1 ≥ 7.00
